assay: physchem; details: 4 °C, oil or lipid, thermodynamic from solid, solubility in squalene, 4° C. (overnight), solution at the fatty acid's top concentration left at 4° C. overnight
// values below are reported solubility

{"Compound": "CCCCCCCCCCCCCCC(=O)O [Pentadecanoic Acid]", "Obs Value": "< 40 mg/mL"}
{"Compound": "CC/C=C\\C/C=C\\C/C=C\\CCCCCCCC(=O)O [Linolenic Acid (18:3), Linolenic Acid]", "Obs Value": "> 40 mg/mL"}
{"Compound": "CCCCCC/C=C\\CCCCCCCC(=O)O [Palmitoleic Acid (16:1), Palmitoleic Acid]", "Obs Value": "> 40 mg/mL"}
{"Compound": "CCCCCCCCCCCCC(=O)O [Tridecanoic Acid]", "Obs Value": "< 40 mg/mL"}

input: Assign solubility to the following record: CCCCCCCCCCCCCCCCCCCCCCC(=O)O [Tricosanoic Acid]
output: < 40 mg/mL

input: Assign solubility to the following record: CCCCCCCC/C=C\CCCCCCCCCCCCCC(=O)O [Nervonic Acid (24:1), Nervonic Acid]
output: < 40 mg/mL

input: Assign solubility to the following record: CCCCCCCCCCCCCCCCCCCC(=O)O [Arachidic Acid (20:0), Arachidic Acid]
output: < 40 mg/mL

input: Assign solubility to the following record: CCCCCCCCCCC(=O)O [Undecanoic Acid]
output: > 40 mg/mL

input: Assign solubility to the following record: CCCCCCCCCCCCCCCCCCCCCCCC(=O)O [Lignoceric Acid (24:0), Lignoceric Acid]
output: < 40 mg/mL

input: Assign solubility to the following record: CCCCCCCCCCCCCCCCCCCCC(=O)O [Heneicosanoic Acid]
output: < 40 mg/mL

input: Assign solubility to the following record: CCCCCCCCCCCCCC(=O)O [Myristic Acid (14:0), Myristic Acid]
output: < 40 mg/mL

input: Assign solubility to the following record: CC/C=C\C/C=C\C/C=C\C/C=C\C/C=C\C/C=C\CCC(=O)O [Docosahexaenoic Acid (22:6), Docosahexaenoic Acid]
output: > 40 mg/mL

Each recorded value in this set is attributed to patent US9636410B2.
